Experiment: Confirmatory qHTS for activators (rescue) of SARS-CoV-2 Cytopathic Effect (CPE) (AID 1508606); further: nearly all actives have a fitted effect of over 70% in size
Details: Vero E6 SARS-CoV-2 CPE rescue, viability luminescence; series mostly up to 20 µM
Inconclusive results are not listed. Activity calls are given as the source filed them. The call rests on the fitted dose curve.
Thanks in advance; please answer with one of these: 1 (yes) (active), 0 (no) (inactive)

Request: In this assay, the call recorded for `O=c1cc(-c2cccc3c2Sc2ccccc2S3)oc(N2CCOCC2)c1` was what?
Result: 1 (yes)

Request: Check `COc1cccc([C@@H](C)NCCCc2ccccc2Cl)c1` too.
Result: 1 (yes)

Request: Check `CC(C)(C)Cn1c(N)nc2ccc(-c3[nH]c(C(C)(C)C)nc3-c3ccc(F)cc3)nc21` too.
Result: 1 (yes)

Request: Check `CN1CCC(c2cn(C)c3ccc(OS(=O)(=O)c4c(F)cccc4F)cc23)CC1` too.
Result: 1 (yes)

Request: Check `COc1cc(Nc2nc3ccccc3nc2NS(=O)(=O)c2ccc(NC(=O)c3ccc(C)c(OC)c3)cc2)cc(OC)c1` too.
Result: 0 (no)

Request: Check `CN1CN(c2ccccc2)C2(CCN(CCCC(=O)c3ccc(F)cc3)CC2)C1=O` too.
Result: 1 (yes)

Request: Check COc1ccccc1OCCNCC(O)CCOc1cccc2[nH]c3ccccc3c12 (centres undefined) too.
Result: 1 (yes)

Request: Check `NC(=O)c1cccc2cn(-c3ccc([C@@H]4CCCNC4)cc3)nc12` too.
Result: 1 (yes)

Request: Check `Cc1[nH]c(/C=C2\C(=O)Nc3ccc(S(=O)(=O)N(C)c4cccc(Cl)c4)cc32)c(C)c1C(=O)N1CCN(C)CC1` too.
Result: 0 (no)

Request: Check CCCCN1[C@@H]2CC[C@H]1CC(OC(c1ccc(F)cc1)c1ccc(F)cc1)C2 (some centres undefined) too.
Result: 1 (yes)

Request: Check `c1cncc(CN2CCC(n3ncc4c(N5CCOCC5)nc(-c5ccc6[nH]ccc6c5)nc43)CC2)c1` too.
Result: 0 (no)

Request: Check `CCc1nc(-c2cccc(C)c2)c(-c2ccnc(NC(=O)c3ccccc3)c2)s1` too.
Result: 0 (no)

Request: Check `CC(C)(N)c1ccc(-c2nc3ccccc3nc2-c2ccccc2)cc1` too.
Result: 1 (yes)

Request: Check `CCC(=O)c1cc(-c2ccc(Cl)cc2)n(-c2ccc(S(N)(=O)=O)cc2)c1C` too.
Result: 0 (no)

Request: Check `Cn1ncc2cc(-c3cnc(N)c(Cl)c3N3CCC4(CCNC4=O)CC3)ccc21` too.
Result: 1 (yes)

Request: Check `Oc1ccc2c3c1O[C@H]1c4[nH]c5c(N=C=S)cccc5c4C[C@@]4(O)[C@@H](C2)N(CC2CC2)CC[C@]314` too.
Result: 1 (yes)

Request: Check `CN(C)c1cc2c(cc1Sc1nc3c(N)nccc3n1CCNCC(C)(C)C)OCO2` too.
Result: 1 (yes)

Request: Check `CCc1cccc(CC)c1-n1c(C=C(C)C)c(C(=O)N2CCNCC2)cc(-c2nc(-c3ccc(C(F)(F)F)cc3)cs2)c1=O` too.
Result: 0 (no)

Request: Check `CC(C)c1cnn2c(NCc3ccccc3)cc(NCCCCCCN)nc12` too.
Result: 1 (yes)

---

Target: Nucleoprotein (Lymphocytic choriomeningitis virus (strain Armstrong))
Experiment: qHTS for Inhibitors of the Functional Ribonucleoprotein Complex (vRNP) of Lymphocytic Choriomeningitis Arenaviruses (LCMV): LCMV Primary Screen - GLuc reporter signal (AID 1347086); further: nearly all actives have a fitted effect of over 70% in size
Details: LCMV minigenome vRNP cell assay, Gaussia luciferase reporter; series mostly up to 57.5 µM
Records with an inconclusive call do not appear. Activity calls are given as the source filed them. Calls follow the shape of the full dose curve.
Thanks in advance; please answer with one of these: 1 for active, 0 for inactive

Request: In this assay, the call recorded for CC(C)(O)CC[C@H](OC(=O)c1ccccc1)[C@](C)(O)[C@H]1CC[C@@]2(O)C3=CC(=O)[C@@H]4C[C@@H](O)[C@H](O)C[C@]4(C)C3CC[C@]12C (some centres not stated) was what?
Result: 0

Request: Check `CCOC(=O)[C@H](CCc1ccccc1)N[C@@H](C)C(=O)N1[C@@H](C(=O)O)C[C@H]2CCC[C@@H]21` too.
Result: 0

Request: Check `CN=C(N)NCCC[C@H](N)C(=O)O` too.
Result: 0

Request: Check `O=C(CCCCCCNC(=O)c1cnc(N(c2ccccc2)c2ccccc2)nc1)NO` too.
Result: 0

Request: Check `COc1cc(Nc2nc3ccccc3nc2NS(=O)(=O)c2ccc(NC(=O)c3ccc(C)c(OC)c3)cc2)cc(OC)c1` too.
Result: 1

Request: Check `O=C(CCCCO)CCCCCCCC[C@H]1N[C@H](CO)[C@H](O)[C@@H]1O[C@@H]1O[C@H](CO)[C@@H](O)[C@H](O)[C@H]1O` too.
Result: 0

Request: Check `COc1ccc(-c2coc3cc(O)cc(O)c3c2=O)cc1OC` too.
Result: 0

Request: Check `N#CC(=Cc1ccc(O)c(O)c1)C(=O)NCc1ccccc1` too.
Result: 0

Request: Check `O=C1NC(=O)C(=Cc2ccc3nccnc3c2)S1` too.
Result: 0

Request: Check `CCCCCCCCCCCCC(=O)CCCCC(=O)O` too.
Result: 0

Request: Check `C/C=C\C/C=C/CCCCCCCCOC(C)=O` too.
Result: 0

Request: Check `COc1ccc2c(c1)c(CC(=O)O)c(C)n2C(=O)c1ccccc1` too.
Result: 0

Request: Check COc1cc2nc(N3CCN(C(=O)OCc4ccccc4)C(C(=O)NC(C)(C)C)C3)nc(N)c2cc1OC (configuration not stated) too.
Result: 0

Request: Check `CCC/C=C/C/C=C/C=C/C=N/NN=O` too.
Result: 0

Request: Check `COc1ccc(-c2ccc(N)[n+](CCCC(=O)O)n2)cc1` too.
Result: 0

Request: Check `NCCCCNCCCN` too.
Result: 0

Request: Check CCCCCC1CCCC(=O)O1 (configuration not stated) too.
Result: 0

Request: Check `CC(=O)O[C@H]1C[C@@H]2CC[C@H]3[C@H]4C[C@H]([N+]5(C)CCCCC5)[C@@H](OC(C)=O)[C@@]4(C)CC[C@@H]3[C@@]2(C)C[C@H]1N1CCCCC1` too.
Result: 0

Request: Check `CCCC(=O)OC/C=C(\C)CCC=C(C)C` too.
Result: 0

Request: Check `O=C(O)[C@@H]1C[C@@H](C(=O)O)N1` too.
Result: 0

Request: Check `O=c1onc2n1-c1cc(Br)ccc1OC2` too.
Result: 0

Request: Check `CCCCCCCCCCCCCC` too.
Result: 0

Request: Check `O=C(O)c1ccccc1Cc1ccccc1` too.
Result: 0

Request: Check Cc1ccc(C(=O)O[C@H](C(=O)O)[C@@H](OC(=O)c2ccc(C)cc2)C(=O)O)cc1 (tested in a mixture with another compound) too.
Result: 0

Request: Check `C[C@H](NC(=O)[C@@H](O)c1cc(F)cc(F)c1)C(=O)N[C@@H]1C(=O)N(C)c2ccccc2-c2ccccc21` too.
Result: 0

Request: Check `CC(C)(F)C[C@H](N[C@@H](c1ccc(-c2ccc(S(C)(=O)=O)cc2)cc1)C(F)(F)F)C(=O)NC1(C#N)CC1` too.
Result: 0

Request: Check `CCCOc1ccc2[nH]cc(C3=CCNCC3)c2n1` too.
Result: 0

Request: Check `CCCCCCCOC(C)=O` too.
Result: 0

Request: Check `Cn1cccc1-c1cccnc1` too.
Result: 0

Request: Check `CNc1nc(-c2ccc3c(N)n[nH]c3c2)cc(N2C[C@@H](C(=O)NC3CCCCC3)CC[C@@H]2C)n1` too.
Result: 0

Request: Check `C=C1[C@@H](OC(C)=O)CC[C@]2(C)[C@@H]1C[C@@H]1C[C@H](OC(C)=O)C(C)=C([C@@H](OC(C)=O)[C@@H]2OC(C)=O)C1(C)C` too.
Result: 0

Request: Check CN1C2CCC1CC(OC(=O)c1cccc(O)c1)C2 (configuration not stated) too.
Result: 0

Request: Check `CC(C)Nc1cc(C(F)(F)F)cc2nc(NC(=O)c3cccnc3)nn12` too.
Result: 0

Request: Check `CN1CCc2cc(NC(=O)Nc3cccnc3)ccc21` too.
Result: 0

Request: Check `COc1cc(C)cc(O)c1` too.
Result: 0

Request: Check `NCCCCN` too.
Result: 0

Request: Check `COC[C@H](NC(=O)c1cnc(C)s1)C(=O)N[C@@H](COC)C(=O)N[C@@H](Cc1ccccc1)C(=O)[C@@]1(C)CO1` too.
Result: 1

Request: Check `CC(=O)OC[C@@H]1O[C@@H](n2ccc(=O)[nH]c2=O)[C@H](OC(C)=O)[C@H]1OC(C)=O` too.
Result: 1

Request: Check `CCCC(=O)OCc1ccccc1` too.
Result: 0

Request: Check `FC(F)(F)c1ccc(Nc2nc3ccc(Oc4ccnc(-c5ncc(C(F)(F)F)[nH]5)c4)cc3[nH]2)cc1` too.
Result: 1

Request: Check `O=C(Nc1cccc(C(=O)Nc2ccc(S(=O)(=O)O)c3cc(S(=O)(=O)O)cc(S(=O)(=O)O)c23)c1)Nc1cccc(C(=O)Nc2ccc(S(=O)(=O)O)c3cc(S(=O)(=O)O)cc(S(=O)(=O)O)c23)c1` too.
Result: 0

Request: Check `O=C(O)c1cc(O)c2c(c1)C(=O)c1cccc(O)c1C2=O` too.
Result: 0
